target: Voltage-gated inwardly rectifying potassium channel KCNH2 (Homo sapiens, UniProt Q12809); assay: Inhibition of human ERG expressed in CHO cells by whole-cell patch clamp assay
Sequence (Q12809 whole entry): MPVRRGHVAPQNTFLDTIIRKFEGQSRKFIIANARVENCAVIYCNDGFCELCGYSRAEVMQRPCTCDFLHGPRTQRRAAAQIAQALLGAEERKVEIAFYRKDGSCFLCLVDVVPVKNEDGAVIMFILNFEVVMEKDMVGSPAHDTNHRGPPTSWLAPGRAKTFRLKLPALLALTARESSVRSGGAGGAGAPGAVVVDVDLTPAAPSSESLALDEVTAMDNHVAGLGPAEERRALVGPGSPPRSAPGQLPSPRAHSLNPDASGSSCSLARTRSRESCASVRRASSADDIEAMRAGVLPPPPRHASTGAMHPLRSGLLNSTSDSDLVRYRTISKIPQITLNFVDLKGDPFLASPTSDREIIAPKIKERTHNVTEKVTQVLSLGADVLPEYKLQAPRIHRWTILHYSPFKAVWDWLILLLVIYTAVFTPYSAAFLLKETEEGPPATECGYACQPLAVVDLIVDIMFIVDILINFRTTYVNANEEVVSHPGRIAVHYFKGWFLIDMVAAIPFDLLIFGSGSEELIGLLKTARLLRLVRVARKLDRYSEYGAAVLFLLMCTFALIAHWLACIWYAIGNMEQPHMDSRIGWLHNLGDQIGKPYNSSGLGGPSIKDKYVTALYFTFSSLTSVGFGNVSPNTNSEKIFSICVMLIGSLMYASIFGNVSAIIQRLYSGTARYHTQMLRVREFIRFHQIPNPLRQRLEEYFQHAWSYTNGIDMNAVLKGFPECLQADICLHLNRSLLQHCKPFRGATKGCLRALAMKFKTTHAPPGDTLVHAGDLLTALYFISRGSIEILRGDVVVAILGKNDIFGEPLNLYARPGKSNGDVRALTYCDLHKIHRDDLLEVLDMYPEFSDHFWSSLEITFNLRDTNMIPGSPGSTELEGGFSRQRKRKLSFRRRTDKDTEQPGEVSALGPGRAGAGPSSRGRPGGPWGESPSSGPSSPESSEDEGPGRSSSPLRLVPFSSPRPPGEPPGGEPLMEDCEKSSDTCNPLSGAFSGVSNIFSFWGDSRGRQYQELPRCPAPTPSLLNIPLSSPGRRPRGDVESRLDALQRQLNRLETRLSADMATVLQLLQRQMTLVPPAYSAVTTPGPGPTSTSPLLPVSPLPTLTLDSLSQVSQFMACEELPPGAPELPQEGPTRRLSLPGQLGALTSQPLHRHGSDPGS
PROPERTY NAME: IC50

| COMPOUND | MEASURED TARGET | VALUE |
| --- | --- | --- |
| C[C@@H](N1CCn2nc(-c3ccc(C#N)nc3)nc2C1)[C@](O)(Cn1cncn1)c1ccc(F)cc1F | Voltage-gated inwardly rectifying potassium channel KCNH2 (Homo sapiens, UniProt Q12809) | > 40 µM |

For the next question, use this compound.
Please report the recorded IC50 for CCC(C)n1ncn(-c2ccc(N3CCN(c4ccc(OCC5COC(Cn6cncn6)(c6ccc(Cl)cc6Cl)O5)cc4)CC3)cc2)c1=O (racemic) . > 40 µM
